- Test system: P. falciparum male gametocytes
- EXPERIMENTAL DETAILS: P. falciparum Dual Gamete Formation Assay (PfDGFA), male readout (exflagellation)
- Format: cell-based, Plasmodium falciparum NF54
- TEST CONTEXT: PfDGFA at 2µM, 24h preincubation with gametocytes prior to induction of gametogenesis; replicate R1
EXPERIMENTAL READOUT: % inhibition male (individual replicates) R1 (%)
Express the result in % but write the number alone.

Before answering, review these 3 worked examples.
>>> meas_value("CC(C)CN1CCC(COc2ccc3ncn(-c4cc(O[C@H](C)c5ccccc5C(F)(F)F)c(C(N)=O)s4)c3c2)CC1")
69.3
>>> meas_value("Cc1c(Cc2ccccc2Br)cnc2nc(N)nc(N)c12.Cl")
13.7
>>> meas_value("CC1(C)N=C(NC(=O)c2ccc([N+](=O)[O-])cc2)N=C(N)N1OCc1ccc2ccccc2c1")
21.0

Entry under review: `CS(=O)(=O)Cc1cccc(Nc2ncc(Cl)c(Nc3cccnc3C(N)=O)n2)c1.Cl` . Reported % inhibition male (individual replicates) R1?
26.3
